System: RXF 393
Experiment: NCI tumour cell line growth inhibition, 48 h
Active and inactive are the calls of the source. No stated cut-off is given here; in the data, active = GI50 up to about 1.1 µM and inactive = higher.
Quantity: GI50

Input: Which value of GI50 has been reported for CCOC(=O)C(C(=O)OCC)C(=O)c1ccccc1C(=O)c1ccccc1 in the records?
Output: > 100 µM (inactive)

Input: What value of GI50 has been reported for the following molecule? Nc1ccn([C@@H]2C=C(CO)[C@@H](O)[C@H]2O)c(=O)n1
Output: 0.53 µM (active)

Input: Consider the molecule shown here: CCOC(=O)c1ccc(/N=C2\Sc3nc4ccccc4n3\C2=N\c2ccc(C(=O)OCC)cc2)cc1 What is its recorded GI50?
Output: 28.8 µM (inactive)

Input: GI50 lookup needed for C=C1C(C(O)C[C@H](C)C2O[C@@]3(CCCCO3)CCC2C)O[C@@H]2CCC3(CCC(/C=C/[C@@H](C)C4CC(C)=CC5(O4)O[C@H](C[C@](C)(O)C(=O)O)CCC5O)O3)OC2[C@@H]1O (some centres undefined) , thanks.
Output: 0.018 µM (active)

###

What GI50 was measured for each of the following?
Tested on: IGROV-1
Experiment: NCI tumour cell line growth inhibition, 48 h
Calls of active or inactive are those of the source. Rule as the data show it: active = GI50 up to about 1.1 µM and inactive = higher.

Input: Please report the recorded GI50 for O=C(CCc1cc(O)ccc1O)OCCc1ccccc1 .
Output: 12.7 µM (inactive)

Input: Form field: reported GI50 of COC(=O)c1c(O)ccc2c1c1c(n2Cc2ccc(Cl)cc2Cl)C(=O)c2ccccc2C1=O
Output: 11.2 µM (inactive)

Input: Any idea what GI50 was measured for CCCC(=O)Nc1ncnc2c1ncn2C1OC2COP(=O)(O)OC2C1OC(=O)CCC (stereo not given) ?
Output: 22.5 µM (inactive)

Input: Fill in the blank: the reported GI50 of O=C(O)CSc1ccccc1C(=O)O is ____.
Output: > 100 µM (inactive)

Input: Any idea what its GI50 is? The compound is COC(=O)C1(C)C=CC(=O)C2(C)C1C(O)C1OC3CC(c4ccoc4)C(C)=C3C1(C)C2CC(=O)O (stereo not given)
Output: > 100 µM (inactive)

Input: Name the recorded GI50 for O=C1CS/C(=N/N=C/c2cn(Cc3ccc(Cl)cc3Cl)c3ccccc23)N1 .
Output: 73.3 µM (inactive)

Input: Which GI50 value is on record for COC1C=COC2(C)Oc3c(C)c(O)c4c(O)c(c(C5SCCS5)c(O)c4c3C2=O)NC(=O)C(C)=C/C=C\C(C)C2OC(C)(C)OC(C2C)C(C)C(OC(C)=O)C1C (stereo not given) ?
Output: 6.56 µM (inactive)

Input: // GI50 lookup, key: CCOC(=O)Cn1nnc2ccc(Nc3nc4ccccc4nc3C(=O)OCC)cc21
Output: > 100 µM (inactive)

Input: Give its GI50 value. Item: Nc1nc(NCCCO)cc(=O)[nH]1
Output: > 100 µM (inactive)

Input: Please give the measured GI50 for this compound: O=C(Nc1ccccc1C(=O)Nc1nccs1)c1ccccc1
Output: 35.8 µM (inactive)

###

Give GI50 for every item shown.
Test system: PC-3
Experiment: NCI tumour cell line growth inhibition, 48 h
Calls of active or inactive are those of the source. Cut-off read from the data, not from the text of the source: active = GI50 up to about 1.1 µM and inactive = higher.

Input: Entry CC(=O)Nc1nc(O)c2nc(C=O)cnc2n1 has what GI50?
Output: > 100 µM (inactive)

Input: For the molecule shown here, COC1C=COC2(C)Oc3c(C)c(O)c4c(O)c(c(C5SCCS5)c(O)c4c3C2=O)NC(=O)C(C)=C/C=C\C(C)C2OC(C)(C)OC(C2C)C(C)C(OC(C)=O)C1C (stereo not drawn) , give the reported GI50.
Output: 5.31 µM (inactive)

Input: Given the molecule CC(C)(C)N1C(=O)[N-]/[N+](=C(/C(c2ccccc2)=[N+]2/[N-]C(=O)N(C(C)(C)C)C2=O)c2ccccc2)C1=O , what is its reported GI50?
Output: > 100 µM (inactive)

Input: Entry under review: O=c1[nH]c2c(S)nc(O)nc2n1-c1ccccc1 . Reported GI50?
Output: > 100 µM (inactive)

Input: What does the data say about its GI50? Entry: N#CCCC1(CCC#N)CCCCCCCCC(CCC#N)(CCC#N)C(=O)C1=O
Output: > 100 µM (inactive)

Input: What does the data say about its GI50? Entry: O=[N+]([O-])c1ccc(C[S+]([O-])Cc2ccccc2)cc1 (stereo not drawn)
Output: > 100 µM (inactive)

Input: Please report the recorded GI50 for O=C1NC(SSC2=NNC3(C(=O)N2)c2ccccc2-c2ccccc23)=NNC12c1ccccc1-c1ccccc12 .
Output: > 10 µM (inactive)

Input: Suppose we examine the molecule COc1cccc(C(=O)Nc2c3ccccc3nc3ccccc23)c1OC ; what GI50 value has been reported?
Output: > 100 µM (inactive)

Input: Find the recorded GI50 belonging to Cc1nc2c(=O)n(-c3ccccc3)c3ccccc3c2o1 and report it.
Output: > 100 µM (inactive)

Input: State the recorded GI50 for this entry: c1cc(NC2=NCCO2)c2c(c1)OCO2
Output: > 100 µM (inactive)

Input: Return reported GI50; argument: CC1=C2CC3=C(C)C(=O)O[C@H]3C[C@@H](C)[C@@H]2CC1 [AMERICANOLIDE D]
Output: > 100 µM (inactive)

Input: Quick one: GI50 for NCC(=O)Nc1ccc(Cl)cc1C(=O)c1ccc[nH]1 ?
Output: 25.9 µM (inactive)

Input: What value of GI50 has been recorded for this entry: COc1ccc(/C(=N/N=c2[nH]c3ccccc3[nH]2)C(=O)O)cc1
Output: > 100 µM (inactive)

Input: Can you share its GI50? I mean this molecule: C=CCNC(=O)NC1=CSC2=NC(=O)C3(NN12)c1ccccc1-c1ccccc13
Output: > 10 µM (inactive)

Input: // lookup GI50 for CCCNc1c(Cl)cc(Cl)c2[nH]c3ccccc3c(=O)c12
Output: 37.1 µM (inactive)

Input: Give its GI50 value. Item: O=C(O)CCSCc1ccccc1
Output: > 100 µM (inactive)

Input: Fill in the blank: the reported GI50 of COc1cc2c(c(OC)c1OC)-c1ccc(=O)c(O)cc1[C@@H](NC(C)=O)CC2 is ____.
Output: 17.8 µM (inactive)

Input: # GI50 lookup, item O=C1CS/C(=N/N=C/c2cn(Cc3ccc(Cl)cc3Cl)c3ccccc23)N1
Output: 19.6 µM (inactive)

###

Tested on: EKVX
Test: NCI tumour cell line growth inhibition, 48 h
Calls of active or inactive are those of the source. Cut-off read from the data, not from the text of the source: active = GI50 up to about 1.1 µM and inactive = higher.
Task for the reader: assign each of the following molecules its reported GI50.

Input: Name the recorded GI50 for Cc1c(-c2ccccc2)c(C#N)c2nnn(C3CCCCC3)c(=O)n12 .
Output: 37 µM (inactive)

Input: Which GI50 is listed for CN(C)CCCNCc1cccc2ccccc12 ?
Output: > 100 µM (inactive)

Input: I am curious: what GI50 value has been reported for CC(=N/NC(=S)N(C)C)/C(=N\NC(=S)N(C)C)c1ccccc1 ?
Output: 1.85 µM (inactive)

Input: Query: GI50; subject: COCCOCC(=O)N(CCn1ccc(NC(c2ccccc2)(c2ccccc2)c2ccccc2)nc1=O)CCn1cnc2nc(N)[nH]c(=O)c21
Output: > 100 µM (inactive)

Input: Tell me the measured GI50 of O=C1C=CC2(C=C1)CCNC1=C2C(=O)c2ccccc2C1=O , please.
Output: > 100 µM (inactive)

Input: For COc1cn2c(cc1=O)COc1ccc(-c3ccccc3)cc1-2 , what is its reported GI50?
Output: 36 µM (inactive)

Input: If you can, please state the reported GI50 value of CCOC(=O)Nc1[nH]cc(-c2ccccc2)c1C#N .
Output: > 100 µM (inactive)

Input: Param item = O=c1c(Cc2c(O)oc3cc(O)ccc3c2=O)c(O)oc2cc(O)ccc12 ; retrieve measured GI50.
Output: > 100 µM (inactive)

Input: Please report the recorded GI50 for CC(=O)O[C@H]1C(=O)[C@@]2(C)[C@H]([C@H](OC(=O)c3ccccc3)[C@]3(O)C[C@H](OC(=O)[C@H](O)[C@@H](NC(=O)C(C)(O)C(C)O)c4ccccc4)C(C)=C1C3(C)C)[C@]1(OC(C)=O)CO[C@@H]1C[C@@H]2O (some centres undefined) .
Output: > 50 µM (inactive)

###

Test system: COLO 205
Test: NCI tumour cell line growth inhibition, 48 h
The source made the active and inactive calls. Cut-off read from the data, not from the text of the source: active = GI50 up to about 1.1 µM and inactive = higher.
Quantity: GI50

Input: For the molecule O=[N+]([O-])c1ccc(S(=O)(=O)Cc2ccccc2)c([N+](=O)[O-])c1 , what GI50 is on record?
Output: 1.79 µM (inactive)

Input: Tell me the measured GI50 of O=C(CC1(O)C(=O)Nc2c(Cl)cc(Cl)cc21)c1ccc(F)cc1 (stereo unspecified) , please.
Output: 19 µM (inactive)

Input: Look up GI50 for this molecule: COC[C@H](Cc1ccccc1)/N=C/c1ccccc1
Output: > 100 µM (inactive)

Input: Would you mind telling me what GI50 value was observed for O=C(O)CSc1ccccc1C(=O)O ?
Output: > 100 µM (inactive)

Input: Please report the recorded GI50 for S=c1c2ccccc2c(=S)n2n1CC=CC2 .
Output: > 100 µM (inactive)

Input: What value of GI50 has been reported for the following molecule? CCOC(=O)/C=C(\C)c1ccc(OC)cc1
Output: > 100 µM (inactive)

Input: Recorded GI50 of CC(NC(=O)OC(C)(C)C)C(=O)NC(Cc1ccccc1)C(=O)NCC(=O)ON=C1CCCC1 (stereo unspecified) , please.
Output: > 100 µM (inactive)

Input: # GI50 lookup, item C=CCNC(=O)NC1=CSC2=NC(=O)C3(NN12)c1ccccc1-c1ccccc13
Output: > 10 µM (inactive)

Input: What GI50 value was documented for this molecule, CC(C)(C)N1C(=O)[N-]/[N+](=C(/C(c2ccccc2)=[N+]2/[N-]C(=O)N(C(C)(C)C)C2=O)c2ccccc2)C1=O ?
Output: > 100 µM (inactive)

Input: Name the recorded GI50 for CC(=O)OCc1ccc(O)c(C=O)c1 .
Output: > 100 µM (inactive)

Input: I'd like to know its GI50. The molecule in question is Cn1cc(NC(=O)c2cc(NC(=O)CCCCCCC(=O)Nc3cc(C(=O)Nc4cc(C(=O)NCCC(=N)N)n(C)c4)n(C)c3)cn2C)cc1C(=O)NCCC(=N)N
Output: 6.08 µM (inactive)

Input: GI50 lookup needed for O=C1[C@@H]2Cc3c([nH]c4ccccc34)C(C3CCCCC3)N2C(=O)[C@@H]2CCCN12 (stereo partly specified) , thanks.
Output: 21.5 µM (inactive)

Input: Which GI50 value belongs to COc1cc(Br)c(OC)c2c(OC)cc(C)cc12 ?
Output: > 100 µM (inactive)

Input: Would you kindly share the measured GI50 for O=C1OCCC1C(O)C1c2ccccc2-c2ccccc21 (stereo unspecified) ?
Output: > 100 µM (inactive)

Input: Which GI50 value is on record for CCOC(=O)C(=[N+]=[N-])C(=O)CN1C(=O)c2ccccc2C1=O ?
Output: > 100 µM (inactive)

Input: Tell me the measured GI50 of COc1ccccc1NC(=O)C(=O)C1C(=O)Nc2ccccc2[S+]1[O-] (stereo unspecified) , please.
Output: > 100 µM (inactive)

Input: What value of GI50 has been recorded for this entry: O=C(N/C=C/C=C/Sc1ccccc1)OCc1ccccc1
Output: 17.7 µM (inactive)

Input: Returns the measured GI50 for the input molecule. Input: N#Cc1c(-c2ccc(Cl)cc2)cc(-c2ccc(Nc3ccnc4cc(C(F)(F)F)ccc34)cc2)[nH]c1=O
Output: 21 µM (inactive)

Input: What value of GI50 has been reported for the following molecule? COc1ccc(/N=C2\C(=O)C3=C(OC(C)(C)CC3)c3ccccc32)cc1
Output: 2.93 µM (inactive)

Input: Reported GI50 for Cc1cccc(/N=C/c2ccc(N(CCC#N)S(=O)(=O)c3ccccc3)cc2C)c1 : what is it?
Output: > 100 µM (inactive)

Input: Record request: GI50 value, item COc1ccc2c(c1)c(=O)c1c(NCCN(C)C)ccc3nnn2c31
Output: 1.36 µM (inactive)
